From: ChEMBL document CHEMBL5614466

assay: Cytotoxicity against human MRC5 cells; assay type: toxicity, cell-based
Some compounds, each annotated with its measured CC50.

Here are 2 compounds together with their reported answers.
SMILES DATA: CC(C)(C)OC(=O)N[C@H]1Cc2ccc(cc2)Oc2ccc(cc2)C(=O)CNC(=O)[C@H](Cc2ccccc2)NC1=O
ASSAY VALUE: > 64 µM

SMILES DATA: CC(=O)Nc1cc2ccc1Oc1ccc(cc1)C[C@H](NC(=O)OC(C)(C)C)C(=O)N[C@@H](Cc1ccccc1)C(=O)NCC2=O
ASSAY VALUE: > 64 µM

Lookup: Supply measured CC50 of CC(C)(C)OC(=O)N[C@H]1Cc2ccc(cc2)Oc2ccc(cc2NC(=O)c2ccccn2)C(=O)CNC(=O)[C@H](Cc2ccccc2)NC1=O in your reply.
Found: > 64 µM
